Just for reference, patent US20180228780A1 is where these values come from.

Please respond with reported pEC50 for every item in the list.
tested on: Primary human fibroblasts derived from IPF patients (LL29 cells); assay: Inhibition of the fibrotic process: αSMA staining in TGF-β1-treated LL29 fibroblasts; assay type: cell-based; conditions: Fibroblast, 96 h, LL29 cells, TGF-β1 20 ng/mL, 4 days, % αSMA-positive cells
Give bare numbers, as −log10 of the molar value.

Sample records with pEC50:
O=C(Nc1cncc(-c2ccc3[nH]nc(-c4cc5c(-c6cccnc6)cncc5[nH]4)c3c2)c1)C1CCCC1 ... 5.63
Cc1ncc(-c2ccc3[nH]nc(-c4cc5c(-c6ccncc6)cncc5[nH]4)c3c2)n1C ... 5.67
CC(C)(C)C(=O)Nc1cncc(-c2ccc3[nH]nc(-c4cc5c(-c6ccc(F)cc6)cncc5[nH]4)c3c2)c1 ... 5.96
CCCC(=O)Nc1cncc(-c2ccc3[nH]nc(-c4cc5ccncc5[nH]4)c3c2)c1 ... 6.39
CN1CCN(c2cncc3[nH]c(-c4n[nH]c5ccc(-c6cncc(NC(=O)CC7CCNCC7)c6)cc45)cc23)CC1 ... 5.19

Each compound below has a reported value. Please supply its pEC50.
1. c1cc(-c2ccc3[nH]nc(-c4cc5c(-c6ccncc6)cncc5[nH]4)c3c2)ccn1
2. O=C(Nc1cncc(-c2ccc3[nH]nc(-c4cc5c(-c6cccc(F)c6)cncc5[nH]4)c3c2)c1)C1CCCCC1
3. CCC(=O)Nc1cncc(-c2ccc3[nH]nc(-c4cc5c(-c6cccc(F)c6)cncc5[nH]4)c3c2)c1
4. CC(C)C(=O)Nc1cncc(-c2ccc3[nH]nc(-c4cc5c(-c6ccccc6F)cncc5[nH]4)c3c2)c1
5. Fc1ccccc1-c1cncc2[nH]c(-c3n[nH]c4ccc(-c5cncc(CN6CCC(F)(F)C6)c5)cc34)cc12
6. CN1CCN(c2cncc3[nH]c(-c4n[nH]c5ccc(-c6cncc(N)c6)cc45)cc23)CC1
7. CC(C)Nc1cncc(-c2ccc3[nH]nc(-c4cc5c(-c6cccnc6)cncc5[nH]4)c3c2)c1

1. 5.91
2. 6.71
3. 7.21
4. 5.90
5. 6.19
6. 5.27
7. 6.50

Quick note, pEC50 for O=C(Nc1cncc(-c2ccc3[nH]nc(-c4cc5c(-c6ccc(F)cc6)cncc5[nH]4)c3c2)c1)C1CCC1 landed at 6.87
